- TEST_METHOD_NOTES: log P by HPLC
- Format: physicochemical
- EXPERIMENTAL_CONTEXT: EEC directive 79/831 Annex V. A8 by HPLC (gradient method, acetonitrile/0.1% aqueous phosphoric acid)
MEASURED_METRIC: logP

In the examples that follow, each entry is paired with its recorded logP.
# MOLECULE, TEST_VALUE
rows = [
    ("Cc1nc2nc(Cl)c(-c3ccc(F)cc3F)c(Nc3ccc(F)cc3)n2n1", 2.7),
    ("COCCN(C)c1c(-c2c(F)cccc2F)c(Cl)nc2nc(C)nn12", 2.45),
    ("CCOC(=O)CN(c1c(-c2ccc(F)cc2F)c(Cl)nc2nc(C)nn12)C1CC1", 3.29),
    ("Cc1nc2nc(Cl)c(-c3ccccc3F)c(NCCC(F)(F)F)n2n1", 2.7),
    ("CCN(CC1CCCO1)c1c(-c2c(F)cccc2F)c(Cl)nc2nc(C)nn12 (centres unmarked)", 3),
]

(P) C=CCONc1c(-c2ccccc2F)c(Cl)nc2nc(C)nn12
(Q) CCCN(CC1CCCO1)c1c(-c2ccc(F)cc2F)c(Cl)nc2nc(C)nn12 (centres unmarked)
Which record shows the lower logP: the first, P , or the second, Q ? # respond with the chosen item's label
P
